Biological target: Peptide 1593 (…) (Mycobacterium tuberculosis)
Assay: indirect ELISA, supernatant on 1 ug/ml coated peptide
Endpoint: OD450, supernatant 1:90 (OD450)
Quick note: give the figure in OD450, leave out the unit.

Look over these answered cases.
input: Consider the binder Antibody 135A6-1 (antibody, V domains shown) VH: QSVEESGGRLVTPGTPLTLTCTVSGFSLGNYDISWVRQAPGKGLEWIGVIATVGDTYYASWAKGRFTISKTSATVDLKITSPTTEDTATYFCVRGDSPSTNEIFGLWGQGTLVTVSS VL: AVLTQTPSPVSAAVGGTLTINCQSSRTVYNNICLSWYQQKLGQPPKLLIYGASTLTSGVPSRFRGSGSGTQFTLTINDVQCGDAATYYCAGCFPSTSDMYGFGGGTEVVVK and give its measured OD450, supernatant 1:90.
output: 3.46

input: Consider the binder Antibody 125D9-1 (antibody, V domains shown) VH: QPVEESGGRLVTPGTPLTLTCTVSGFSLSSYDMTWVRQAPGKGLEYIGVVAYGGATYYASWAKGRFTISKTSTTVDLKITSPTTEDTATYFCARGDSDGSSELFNLWGQGTLVTVSS VL: AVLTQTPSPVSAAVGGTVTINCQSSKSVYNNNCLSWYQQKQGQPPKLLIYQASTPASGVPSRFKGSGSGTQFTLTINDVQCDDAATYYCAGCFASTSDMYGFGGGTGVVVK and give its measured OD450, supernatant 1:90.
output: 3.37

Next:
input: Consider the binder Antibody 67G8-2 (antibody, V domains shown) VH: QSVEESGGRLVTPGTPLTLTCTVSGFSLGNYDGHWVRQTPEKGLEWIGVIATIGDTYYASWAKGRFSISKTSATVELRITSPTTEDTATYFCVRGDSRTSNEIFNLWGQGTLVTVSS VL: AVLTQTPSPVSAAVGGTLTINCQSTRSVHNNICLSWYQQKPGQPPKLLIYSASTLASGVPSRFKGSGSGTQFTLAINDVQCGDAATYYCAGCFPSKSDMYGFGGGTEVVVK and give its measured OD450, supernatant 1:90.
output: 3.1
